// reported absorbance 490 nm/630 nm for each item listed
test_system: T1, Ala mutant SEQ ID NO: 38 (human)
T1 sequence (peptide): EENMDDQWMQDAMEIGY
protocol: ELISA, peptide on plate (10 ug/mL)
# number only, unit OD dropped from output

H7 (antibody, IgG1, V domains shown) VH: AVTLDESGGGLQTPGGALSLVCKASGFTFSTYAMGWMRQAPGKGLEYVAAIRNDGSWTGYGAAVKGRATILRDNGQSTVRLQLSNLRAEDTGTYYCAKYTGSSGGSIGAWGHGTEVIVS VL: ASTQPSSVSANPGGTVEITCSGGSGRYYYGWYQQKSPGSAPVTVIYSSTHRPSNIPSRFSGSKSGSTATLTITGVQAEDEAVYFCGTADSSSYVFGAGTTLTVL	1.99
G9 (antibody, IgG1, V domains shown) VH: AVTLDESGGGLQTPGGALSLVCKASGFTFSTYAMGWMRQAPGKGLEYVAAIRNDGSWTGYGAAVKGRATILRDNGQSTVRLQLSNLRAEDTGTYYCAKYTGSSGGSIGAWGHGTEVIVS VL: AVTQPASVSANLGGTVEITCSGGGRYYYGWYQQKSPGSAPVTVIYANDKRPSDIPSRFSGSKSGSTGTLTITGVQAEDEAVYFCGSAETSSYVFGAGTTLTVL	1.96

Now look at this entry.
Quote absorbance 490 nm/630 nm reported for G8 (antibody, IgG1, V domains shown) VH: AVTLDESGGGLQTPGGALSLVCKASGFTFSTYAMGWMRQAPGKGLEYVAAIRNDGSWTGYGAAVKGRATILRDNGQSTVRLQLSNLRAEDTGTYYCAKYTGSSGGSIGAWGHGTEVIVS VL: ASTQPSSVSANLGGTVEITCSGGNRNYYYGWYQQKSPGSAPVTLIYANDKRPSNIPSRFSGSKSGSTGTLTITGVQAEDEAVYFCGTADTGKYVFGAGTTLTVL please.
1.91
